- TEST_NAME: reducers of endogenous Her2 protein level, primary screen, SKBR3 breast tumor cells, AlphaScreen, ATP viability (AID 461);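 on viability: percent of carrier control wells set as 100% viability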
- ASSAY_SETUP: 18-24 h, measured here: SKBR3 viability, ATP luminescence, at 10 µM
# viability annotations
// note: answer is a bare numeric in %

Here is how some compounds turned out for viability.
- COMPOUND: "O=C(CSc1nnc2sc3ccccc3n12)c1ccco1"
  viability, %: 95
- COMPOUND: "CCOc1ccc(C2C=C(c3ccc(F)cc3)Nc3ncnn32)cc1 (stereo not given)"
  viability, %: 91.5
- COMPOUND: "CCOc1ccccc1C1CC(=O)NC(SCC)=C1C#N (stereo not given)"
  viability, %: 85.5
- COMPOUND: "CCC(C)(C(=O)NC1CCCC1)N(C(=O)c1cnccn1)c1c(C)n(C)n(-c2ccccc2)c1=O (stereo not given)"
  viability, %: 97
- COMPOUND: "O=C(Nc1cccc(NC(=O)c2cccnc2)c1)c1cccnc1"
  viability, %: 89
- COMPOUND: "Cn1c(=O)c2c(nc(CN3CCCCC3)n2CCc2ccccc2)n(C)c1=O"
  viability, %: 87
- COMPOUND: "C=C(c1cccc2ccccc12)P(=O)(O)O"
  viability, %: 116
- COMPOUND: "Cc1ccc(C)c(OCCCC(C)(C)C(=O)O)c1"
  viability, %: 130

Problem: For CCOC(=O)N1CCN(C(=O)c2cccn3c(=O)c4sccc4nc23)CC1 , what is its reported viability?
Solution: 89.5

Problem: // lookup viability for O=C(Nc1nc(-c2ccccc2)cs1)C1CCCCN1S(=O)(=O)c1ccccc1 (stereo not given)
Solution: 100

----------
- TEST_NAME: reversal of MRP1-mediated doxorubicin resistance, pilot screen, H69AR cells, doxorubicin co-treatment (AID 601)
- ASSAY_SETUP: H69AR cells + 2 uM doxorubicin, CellTiter-Glo, 72 h; measured here: viability with 2 uM doxorubicin; at 10 µM; stronger effect = lower value
I'd appreciate it if you marked entries criterion met when viability is lower than 90% and criterion not met when it is not.

Answered cases to consult:
- MOLECULE: "CCOC(=O)c1ccc(Oc2nc(SC)nc(N(C)C)n2)cc1"
  LABEL: "criterion not met"
- MOLECULE: "CC(=O)C1=C(O)C(=O)N(c2ccc(C(=O)O)cc2)C1c1ccccc1 (stereo not given)"
  LABEL: "criterion not met"
- MOLECULE: "C[C@]12C=CC(=O)C=C1CC[C@H]1[C@@H]3C[C@@H](O)[C@](O)(C(=O)CO)[C@@]3(C)C[C@H](O)[C@@]12F"
  LABEL: "criterion not met"
- MOLECULE: "Cn1cccc1Cc1nnc(SCC(=O)Nc2ccc(F)cc2F)n1-c1ccc(F)cc1"
  LABEL: "criterion not met"
- MOLECULE: "O=C(CSc1nc(-c2ccccc2)cs1)NCc1ccco1"
  LABEL: "criterion not met"

// next entry
Problem: Please let me know if Cn1c(=O)n(Cc2ccc(F)cc2)c(=O)c2c1nc1n2CCCN1Cc1ccccc1 shows viability below 90%.
Solution: criterion met

----------
- SYSTEM: Receptor tyrosine-protein kinase erbB-2 (Homo sapiens)
- TEST_NAME: reducers of endogenous Her2 protein level, primary screen, SKBR3 breast tumor cells, AlphaScreen, ATP viability (AID 461);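 on Her2 level: lower value means less Her2 protein in the cells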;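 on viability: percent of carrier control wells set as 100% viability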
- ASSAY_SETUP: 18-24 h, at 10 µM, stronger effect = lower value
Label TRUE when Her2 level is strictly below 90%; otherwise label FALSE.

- COMPOUND: "COc1ccc(C2CNC(=O)C2)cc1OC1CCCC1 (stereo not given)"
  LABEL: "FALSE"

As a next step, examine the compound that follows.
Problem: Regarding Cc1ccccc1-c1nc(CN2CCC(C(=O)NCc3cccnc3)CC2)c(C)o1 , kindly confirm whether its Her2 level is beneath 90%.
Solution: TRUE
